- Measured On: Cholinesterase (Equus caballus) (UniProt P81908)
- Sequence (P81908 whole entry): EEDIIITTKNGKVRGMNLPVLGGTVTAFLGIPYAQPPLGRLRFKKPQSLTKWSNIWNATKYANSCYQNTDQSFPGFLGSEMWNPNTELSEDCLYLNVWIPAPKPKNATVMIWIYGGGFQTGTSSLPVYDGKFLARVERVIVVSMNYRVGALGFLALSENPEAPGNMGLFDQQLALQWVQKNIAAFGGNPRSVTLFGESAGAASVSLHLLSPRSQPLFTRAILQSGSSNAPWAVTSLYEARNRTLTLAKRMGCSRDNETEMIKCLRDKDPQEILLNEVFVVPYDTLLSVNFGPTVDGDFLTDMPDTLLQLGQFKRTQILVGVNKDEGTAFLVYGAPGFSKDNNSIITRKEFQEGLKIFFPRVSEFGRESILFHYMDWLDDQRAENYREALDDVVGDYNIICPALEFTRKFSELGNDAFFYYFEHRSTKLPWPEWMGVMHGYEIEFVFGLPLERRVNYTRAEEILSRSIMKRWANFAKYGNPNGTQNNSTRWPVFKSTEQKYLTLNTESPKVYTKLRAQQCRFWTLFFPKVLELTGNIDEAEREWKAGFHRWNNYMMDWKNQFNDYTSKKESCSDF
- Assay Comment: Inhibition of equine serum BChE using butyrylthiocholine iodide as substrate at 10 uM after 20 mins by Ellman's method
Property Name: inhibition (%)

Compound	Property Name	Observed Measurement
O=c1cc2n(-c3ccccc3)nc(-c3ccccc3)nc-2cc1N1CCCCCC1	inhibition	47
CN1CCN(c2cc3nc(-c4ccccc4)nn(-c4ccccc4)c-3cc2=O)CC1	inhibition	12
CC1CCCCN1c1cc2nc(-c3ccccc3)nn(-c3ccccc3)c-2cc1=O (stereo not given)	inhibition	22
O=c1c(N2CCCC2)cc2nc(-c3ccccc3)nn3c4ccccc4c1c23	inhibition	52
O=c1cc2n(-c3ccccc3)nc(-c3ccccc3)nc-2cc1N1CCOCC1	inhibition	0
CCN(CC)c1cc2nc(-c3ccccc3)nn(-c3ccccc3)c-2cc1=O	inhibition	19
O=c1ccc2nc(-c3ccccc3)nn3c4ccccc4c1c23	inhibition	59
O=c1cc2n(-c3ccccc3)nc(-c3ccccc3)nc-2cc1N1CCC(c2ccccc2)CC1	inhibition	10
CN(CCCCCCCCNc1cc2nc(-c3ccccc3)nn(-c3ccccc3)c-2cc1=O)Cc1ccccc1	inhibition	28
COc1cc2nc(-c3ccccc3)nn3c4ccccc4c(c1=O)c23	inhibition	11

----------
- Assay Comment: Inhibition of HFIP-induced amyloid beta (1-40) aggregation at 100 uM after 2 hrs by thioflavin T fluorescence method
Recorded inhibition split into classes L: < 50%; M: ≥ 50% and < 60%; H: ≥ 60%

Chemical Structure	Category
O=c1cc2n(-c3ccccc3)nc(-c3ccccc3)nc-2cc1N1CCCC1	H
CN(C)CCCN(C)c1cc2nc(-c3ccccc3)nn(-c3ccccc3)c-2cc1=O	L
O=c1ccc2nc(-c3ccccc3)nn(-c3ccccc3)c-2c1	L
O=c1cc2n(-c3ccccc3)nc(-c3ccccc3)nc-2cc1N1CCOCC1	L
O=c1cc2n(-c3ccccc3)nc(-c3ccccc3)nc-2cc1Nc1ccccc1	L
O=c1cc2n(-c3ccccc3)nc(-c3ccccc3)nc-2cc1N1CCN(c2ccccc2)CC1	M
CN1CCN(c2cc3nc(-c4ccccc4)nn(-c4ccccc4)c-3cc2=O)CC1	M
O=c1cc2n(-c3ccccc3)nc(-c3ccccc3)nc-2cc1N1CCSCC1	H
COc1cc2nc(-c3ccccc3)nn3c4ccccc4c(c1=O)c23	L
CC1CCN(c2cc3nc(-c4ccccc4)nn(-c4ccccc4)c-3cc2=O)CC1	H
O=c1cc2n(-c3ccccc3)nc(-c3ccccc3)nc-2cc1Sc1ccccc1	L
O=c1cc2n(-c3ccccc3)nc(-c3ccccc3)nc-2cc1N1CCc2ccccc2C1	H

----------
- Measured On: Acetylcholinesterase (Electrophorus electricus) (UniProt O42275)
- Sequence (O42275 24-633 limits assumed): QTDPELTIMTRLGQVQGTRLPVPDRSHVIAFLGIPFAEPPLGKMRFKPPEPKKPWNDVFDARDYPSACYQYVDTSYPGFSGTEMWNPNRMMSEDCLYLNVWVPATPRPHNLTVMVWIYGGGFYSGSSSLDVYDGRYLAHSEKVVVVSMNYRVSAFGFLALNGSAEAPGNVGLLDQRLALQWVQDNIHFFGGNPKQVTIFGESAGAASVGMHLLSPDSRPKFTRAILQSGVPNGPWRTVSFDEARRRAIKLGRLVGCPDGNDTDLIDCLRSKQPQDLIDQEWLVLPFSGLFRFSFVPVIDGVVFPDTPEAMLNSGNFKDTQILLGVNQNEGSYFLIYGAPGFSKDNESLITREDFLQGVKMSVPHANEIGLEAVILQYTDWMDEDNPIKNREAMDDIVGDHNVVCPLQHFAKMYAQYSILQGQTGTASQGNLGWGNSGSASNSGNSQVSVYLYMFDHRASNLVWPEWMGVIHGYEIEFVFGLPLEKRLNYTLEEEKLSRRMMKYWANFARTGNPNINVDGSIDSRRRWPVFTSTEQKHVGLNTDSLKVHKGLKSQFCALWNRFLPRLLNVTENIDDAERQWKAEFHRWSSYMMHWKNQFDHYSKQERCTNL
- Assay Comment: Inhibition of electric eel AChE using acetylthiocholine iodide as substrate at 10 uM after 20 mins by Ellman's method
// label = Fulfilled if inhibition is not less than 50%, otherwise Not fulfilled

Molecule	Category
CN(Cc1ccccc1)c1cc2nc(-c3ccccc3)nn(-c3ccccc3)c-2cc1=O	Fulfilled
O=c1cc2n(-c3ccccc3)nc(-c3ccccc3)nc-2cc1N1CCN(Cc2ccccc2)CC1	Fulfilled
COc1cc2nc(-c3ccccc3)nn(-c3ccccc3)c-2cc1=O	Not fulfilled
CC1CCCCN1c1cc2nc(-c3ccccc3)nn(-c3ccccc3)c-2cc1=O (stereo not given)	Not fulfilled
O=c1c(N2CCC(c3ccccc3)CC2)cc2nc(-c3ccccc3)nn3c4ccccc4c1c23	Not fulfilled
CN1CCN(c2cc3nc(-c4ccccc4)nn(-c4ccccc4)c-3cc2=O)CC1	Fulfilled
CCN(Cc1ccccc1)c1cc2nc(-c3ccccc3)nn(-c3ccccc3)c-2cc1=O	Fulfilled
O=c1cc2n(-c3ccccc3)nc(-c3ccccc3)nc-2cc1N1CCC(c2ccccc2)CC1	Not fulfilled

----------
- Assay Comment: Inhibition of HFIP-induced amyloid beta (1-40) aggregation at 100 uM after 2 hrs by thioflavin T fluorescence method

Chemical Structure	inhibition
O=c1cc2n(-c3ccccc3)nc(-c3ccccc3)nc-2cc1N1CCN(Cc2ccccc2)CC1	61%
CN(CCCCCCCCNc1cc2nc(-c3ccccc3)nn3c4ccccc4c(c1=O)c23)Cc1ccccc1	60%
COc1cc2nc(-c3ccccc3)nn(-c3ccccc3)c-2cc1=O	60%
CN(c1ccccc1)c1cc2nc(-c3ccccc3)nn(-c3ccccc3)c-2cc1=O	51%

Values compiled from ChEMBL document CHEMBL2150999.
